tested.system: T1, CD22-His tag (CD22 extracellular domain; Acrobiosystems Inc.) (UniProt P20273 20-687, limits assumed)
T1 construct: extracellular domain; Bought reagent coated at 100 ng/well; also called CD22 peptide; not shown: His tag
T1 sequence (looked up): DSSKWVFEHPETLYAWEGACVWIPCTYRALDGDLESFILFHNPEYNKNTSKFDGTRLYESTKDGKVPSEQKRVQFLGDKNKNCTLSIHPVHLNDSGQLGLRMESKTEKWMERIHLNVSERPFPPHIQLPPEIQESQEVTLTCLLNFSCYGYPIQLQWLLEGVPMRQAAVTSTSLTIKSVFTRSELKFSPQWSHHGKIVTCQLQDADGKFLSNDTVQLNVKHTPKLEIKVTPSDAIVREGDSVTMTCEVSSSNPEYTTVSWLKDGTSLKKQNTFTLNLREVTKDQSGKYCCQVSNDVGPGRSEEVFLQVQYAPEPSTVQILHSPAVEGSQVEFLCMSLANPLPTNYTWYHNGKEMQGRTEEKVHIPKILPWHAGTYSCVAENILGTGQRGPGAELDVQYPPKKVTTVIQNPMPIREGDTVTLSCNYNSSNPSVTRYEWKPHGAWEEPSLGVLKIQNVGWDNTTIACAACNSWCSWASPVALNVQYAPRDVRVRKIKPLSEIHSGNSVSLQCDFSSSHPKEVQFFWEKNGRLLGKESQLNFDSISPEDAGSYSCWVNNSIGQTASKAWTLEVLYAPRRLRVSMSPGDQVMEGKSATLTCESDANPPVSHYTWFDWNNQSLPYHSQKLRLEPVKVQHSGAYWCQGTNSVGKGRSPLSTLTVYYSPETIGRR
test.description: ELISA, CD22-His tag coated at 100 ng/well, primary antibody 0.4 ug/ml
metric: OD450 measurements (absorbance at 450 nm)
Give the number; absorbance at 450 nm is assumed, so skip it.

// query Field request: OD450 measurements | item: 6B3 antibody (antibody, V domains shown, Monoclonal antibody from a hybridoma, detected in FACS with goat anti-mouse IgG) VH: EVQLQQSGPELVKPGASVKISCKASGYTFTDYNMHWVKQSHGKSLEWIGYIYPYNGGTGYKQKFKSKATLTVDNSSSTAYMELRSLTSEDSAVYYCARLYYYGRTSYWGQGTTLTVSS VL: DIVMTQSQKFMSTSVGDRVSVTCKASQNVGTYVAWYQQKPGQSPKALIYSASYRYSGVPDRFTGSGSGTDFTLTISIVQSEDLAEYFCHQYDSYPYTFGGGTKLEIK
// result 1.79

// query Field request: OD450 measurements | item: 1C2 antibody (antibody, V domains shown, Monoclonal antibody from a hybridoma (fusion with mouse myeloma cells), detected in FACS with goat anti-mouse IgG) VH: QVQLQQPGAELVRPGASVKLSCKASGYTFTSYWMNWVKQRPGQGLEWIGMIDPSDSETHYNQMFKDKATLTVDKSSSTAYMQLSSLTSEDSAVYYCARWGNYDYDVWAMDYWGQGTSVTVSS VL: DVLMTQTPLSLPVSLGDQASISCRSSQNIVHLNGNTFLEWFLQKPGQSPKLLIYKVSNRFSGVPDRFSGSGSGTDFTLKISRVEAEDLGVYYCFQGSHVPYTFGGGTKLEIK
// result 2.43

// query Field request: OD450 measurements | item: 2G1 antibody (antibody, V domains shown, Monoclonal antibody from a hybridoma, detected in FACS with goat anti-mouse IgG) VH: EVQLQESGPGLVAPSQSLSITCTVSGFSLTSYDISWIRQPPGKGLEWLGVIWTGGGTNYNSAFMSRLSISKDNSKSQVFLKMNSLQTDDTAIYYCVPHYYGYAMDYWGQGTSVTVSS VL: DIVLTQSPSSLSASLGGKVTITCKASQDINKYIAWYQHKPGKGPRLLIHYTSTLQPGIPSRFSGSGSGRDYSFSISNLEPEDIATYYCLQYDNLLTFGAGTKLELK
// result 2.54

Taken from patent US20230212286A1.
